Sourced from patent US20110112308A1

This section presents compounds with their documented % DS (drug substance) values.
# assay-protocol: Stability of mixtures with excipients
# Format: physicochemical
# experimental-context: Mixture 2: 50% Starch 1500 + 5% MCC 102; 50° C./75% r.h., 2 weeks
# Protocol: All samples were prepared/diluted to a concentration of 0.2 mg/mL in methanol prior to analysis by HPLC. A freshly prepared sample of each salt was used as the reference standard for external standard calibration analysis.
metric: % DS (drug substance) (% area)

>  <compound>
Cc1[nH]c2ccccc2c1CCNCc1ccc(/C=C/C(=O)NO)cc1 [Free base]

>  <metric>
% DS (drug substance)

>  <test-result>
99.4

$$$$
>  <compound>
Cc1[nH]c2ccccc2c1CCNCc1ccc(/C=C/C(=O)NO)cc1.O=C(O)/C=C\C(=O)O [Maleate]

>  <metric>
% DS (drug substance)

>  <test-result>
99.7

$$$$
>  <compound>
Cc1[nH]c2ccccc2c1CCNCc1ccc(/C=C/C(=O)NO)cc1.Cl [HCl]

>  <metric>
% DS (drug substance)

>  <test-result>
99.5

$$$$
>  <compound>
CS(=O)(=O)O.Cc1[nH]c2ccccc2c1CCNCc1ccc(/C=C/C(=O)NO)cc1 [Mesylate]

>  <metric>
% DS (drug substance)

>  <test-result>
99.3

$$$$
>  <compound>
CC(O)C(=O)O.Cc1[nH]c2ccccc2c1CCNCc1ccc(/C=C/C(=O)NO)cc1.O (racemic) [Monohydrate DL-lactate salt]

>  <metric>
% DS (drug substance)

>  <test-result>
99.6

$$$$

* * *

# assay-protocol: Stability of mixtures with excipients
# Format: physicochemical
# experimental-context: Mixture 3: 5% PVP + 5% Crospovidone + 10% Starch 1500 + 80% MCC 102; 50° C./75% r.h., 2 weeks
# Description: All samples were prepared/diluted to a concentration of 0.2 mg/mL in methanol prior to analysis by HPLC. A freshly prepared sample of each salt was used as the reference standard for external standard calibration analysis.
This section presents molecules with their documented % DP (total degradation products) values.

>  <molecule>
CS(=O)(=O)O.Cc1[nH]c2ccccc2c1CCNCc1ccc(/C=C/C(=O)NO)cc1 [Mesylate]

>  <% DP (total degradation products) / % area>
0.7

$$$$
>  <molecule>
Cc1[nH]c2ccccc2c1CCNCc1ccc(/C=C/C(=O)NO)cc1.O=C(O)/C=C\C(=O)O [Maleate]

>  <% DP (total degradation products) / % area>
0.3

$$$$
>  <molecule>
Cc1[nH]c2ccccc2c1CCNCc1ccc(/C=C/C(=O)NO)cc1.Cl [HCl]

>  <% DP (total degradation products) / % area>
0.6

$$$$
>  <molecule>
CC(O)C(=O)O.Cc1[nH]c2ccccc2c1CCNCc1ccc(/C=C/C(=O)NO)cc1.O (racemic) [Monohydrate DL-lactate salt]

>  <% DP (total degradation products) / % area>
0.5

$$$$

* * *

# assay-protocol: Solubility, 24-hour equilibration at room temperature
# Type: physicochemical
# experimental-context: ethyl acetate, 25 °C, organic solvent or mixture, thermodynamic from solid

>  <compound>
Cc1[nH]c2ccccc2c1CCNCc1ccc(/C=C/C(=O)NO)cc1 [Free base]

>  <display-unit>
µg/mL

>  <solubility at 24 h>
5600

$$$$

* * *

This section presents compounds with their documented % DP (total degradation products) values.
# assay-protocol: Solution stability (HPLC)
# Format: physicochemical
# experimental-context: 2 mg/mL, 100 mM lactate buffer pH 3.5, 1 week at 50° C.

>  <compound>
Cc1[nH]c2ccccc2c1CCNCc1ccc(/C=C/C(=O)NO)cc1.O=C(O)/C=C\C(=O)O [Maleate]

>  <% DP (total degradation products)>
1.59 % area

$$$$
>  <compound>
CS(=O)(=O)O.Cc1[nH]c2ccccc2c1CCNCc1ccc(/C=C/C(=O)NO)cc1 [Mesylate]

>  <% DP (total degradation products)>
1.60 % area

$$$$
>  <compound>
Cc1[nH]c2ccccc2c1CCNCc1ccc(/C=C/C(=O)NO)cc1.Cl [HCl]

>  <% DP (total degradation products)>
1.30 % area

$$$$
>  <compound>
CC(O)C(=O)O.Cc1[nH]c2ccccc2c1CCNCc1ccc(/C=C/C(=O)NO)cc1.O (racemic) [Monohydrate DL-lactate salt]

>  <% DP (total degradation products)>
1.31 % area

$$$$
